Entries and their melting point values follow.
Structures can show the parent of a compound that is named as a salt.

// worked examples, melting point included
molecule	observed-value
CCOCc1nc2c(N)nc3cc(CCC(=O)N4CCOCC4)ccc3c2n1CC(C)(C)O	118 to 119 °C
COCc1nc2c(N)nc3cc(CCC#N)ccc3c2n1CC(C)(C)O	191 to 193 °C
CC(C)(O)Cn1cnc2c(N)nc3cc(CCC(=O)N4CCOCC4)ccc3c21	217 to 218 °C
CCOCc1nc2c(N)nc3cc(NS(=O)(=O)CC)ccc3c2n1CC(C)(C)O	124 to 127 °C
CCc1nc2c(N)nc3cc(/C=C/C(=O)N4CCOCC4)ccc3c2n1CC1CCOCC1	> 260 °C

## Task Give the measured melting point of COCc1nc2c(N)nc3cc(CCS(C)(=O)=O)ccc3c2n1CC(C)(C)O .
## Result 210 to 212 °C

## Task And for CCOCc1nc2c(N)nc3cc(C=O)ccc3c2n1CC(C)(C)O ?
## Result 203 to 205 °C

## Task And for CCOCc1nc2c(N)nc3cc(S(C)(=O)=O)ccc3c2n1CCCOC ?
## Result 166.5 to 167.5 °C

## Task And for CCc1nc2c(N)nc3cc(CCS(C)(=O)=O)ccc3c2n1CC1CCOCC1 ?
## Result 246.5 to 249 °C

## Task And for COCc1nc2c(N)nc3cc(CCC(N)=O)ccc3c2n1CC(C)(C)O ?
## Result 228 to 230 °C

## Task And for CCc1nc2c(N)nc3cc(CCCNC(C)=O)ccc3c2n1CC1CCOCC1 ?
## Result 209 to 211 °C

## Task And for CC(C)(O)Cn1cnc2c(N)nc3cc(CCS(C)(=O)=O)ccc3c21 ?
## Result 269 to 271 °C

## Task And for COCc1nc2c(N)nc3cc(CCCNS(C)(=O)=O)ccc3c2n1CC(C)(C)O ?
## Result 205 to 207 °C

## Task And for CCOCc1nc2c(N)nc3cc(CCCN4CCOCC4)ccc3c2n1CC(C)(C)O ?
## Result 132 to 133 °C

## Task And for CN(C)C(=O)CCc1ccc2c(c1)nc(N)c1nc(CO)n(CC(C)(C)O)c12 ?
## Result 228 to 230 °C

## Task And for CC(C)(O)Cn1c(CO)nc2c(N)nc3cc(CCC(=O)N4CCOCC4)ccc3c21 ?
## Result 223 to 225 °C

## Task And for CC(C)(O)Cn1c(CO)nc2c(N)nc3cc(CCS(C)(=O)=O)ccc3c21 ?
## Result 221 to 223 °C

## Task And for CCc1nc2c(N)nc3cc(CCC(=O)N4CCOCC4)ccc3c2n1CC(C)(C)O ?
## Result 237 to 239 °C

## Task And for CCOCc1nc2c(N)nc3cc(/C=C/Sc4ccccc4)ccc3c2n1CCCOC(C)C (as salt: hydrobromid) ?
## Result 220 to 221 °C

## Task And for CC(C)Cn1cnc2c(N)nc3ccc(CCO)cc3c21 ?
## Result 214 to 216 °C

## Task And for CC(C)Cn1cnc2c(N)nc3ccc(CCCN4CCCC4=O)cc3c21 ?
## Result 174 to 175 °C

## Task And for CCc1nc2c(N)nc3cc(CCC(=O)N(C)C)ccc3c2n1CC(C)(C)O ?
## Result 234 to 237 °C

###

Entries and their melting point values follow.

## Task Give the measured melting point of CCOCc1nc2c(N)nc3cc(CCCCNC(C)=O)ccc3c2n1CCCOC(C)C .
## Result 122 to 124 °C

## Task And for CCc1nc2c(N)nc3cc(CCCNS(C)(=O)=O)ccc3c2n1CC1CCOCC1 ?
## Result 168 to 170 °C

## Task And for CCOCc1nc2c(N)nc3cc(NC(=O)C(C)C)ccc3c2n1CCCOC(C)C ?
## Result 214 to 215 °C

## Task And for CCCNC(=O)NCCCCc1ccc2c(c1)nc(N)c1nc(COCC)n(CCCOC(C)C)c12 ?
## Result 134.5 to 135.5 °C

## Task And for COc1cccc(CNCc2ccc3nc(N)c4ncn(CC(C)C)c4c3c2)c1 ?
## Result 125 to 126 °C

###

Entries and their melting point values follow.

// worked examples, melting point included
compound	melting point
COC(=O)/C=C/c1ccc2c(c1)nc(N)c1ncn(CC(C)(C)O)c12 [Example 15]	> 250 °C
CCc1nc2c(N)nc3cc(CCC(=O)N4CCSC4)ccc3c2n1CC(C)(C)O [Example 103]	210 to 212 °C
CCCCc1nc2c(N)nc3cc(/C=C/C(=O)OC)ccc3c2n1CC(C)C [Example 8]	193 to 194 °C
CCOCc1nc2c(N)nc3ccc(NC(=O)C(C)C)cc3c2n1CC(C)(C)O [Example 117]	259 to 261 °C
COCc1nc2c(N)nc3cc(CCC(=O)N4CCS(=O)(=O)CC4)ccc3c2n1CC(C)(C)O [Example 107]	190 to 192 °C

// switching to the query compound
## Task Give the measured melting point of CCc1nc2c(N)nc3cc(CCNS(C)(=O)=O)ccc3c2n1CC(C)(C)O [Example 118] .
## Result 149 to 152 °C
